# Protocol description: Protective potential against UV irradiation, MTS assay, Me45
# Assay type: cell-based
# Condition parameters: human; Me45; 5 µM; shortest incubation (first time point, before the 24 h reading); read-out: mortality compared to control untreated cells

# Smiles notation, mortality at 0 h, 5 µM, %
data = [
    ("O=c1c(-c2ccc(O)cc2)coc2cc(O)cc(O)c12", 50),
]

###

# Protocol description: Protective potential against UV irradiation, MTS assay, Me45
# Assay type: cell-based
# Condition parameters: human

# Compound, mortality at 0 h, 5 µM
rows = [
    ("CCCCCCCCCCCC(=O)Oc1ccc(-c2coc3cc(O)cc(O)c3c2=O)cc1 [4′-L-Gen, 4′-genistein dodecanate]", "~10%"),
]
